The reported numbers originate from PubChem BioAssay (NCI).

Test system: HCC-2998 colon
assay_text: NCI tumour cell line growth inhibition, 48 h
Below, each entry is listed with its recorded TGI.
Return type: number; implicit unit µM.

{"columns": ["molecule", "TGI, µM"],
 "data": [
  ["CCCCCCn1c(=N)n(CC(O)COc2cccc(C)c2)c2ccccc21 (centres undefined)", 3.65],
  ["N#Cc1ccccc1C#C/C=C\\C#Cc1cnccn1", 28.2],
  ["Oc1c(Br)cc(Br)c2cccnc12", 18.8],
  ["CNCc1ccc(C)c(NC(=O)c2ccc(Nc3nc(-c4ccccc4)c4ccccc4n3)cc2)c1", 3.58],
  ["COc1cc2c(cc1C)NC(=O)/C2=C/c1c(Cl)n(C)c2ccccc12", 20.1]
]}

Return value of TGI for input Cc1ccc(CCNC(=S)SCC(NC(=O)CCC(N)C(=O)O)C(=O)NCC(=O)O)cc1 (centres undefined) , no commentary.
3.54

Supply recorded TGI for COc1ccc(/C(C)=C(\c2ccc(Cl)cc2)c2ccc(OCCN3CCCCC3)cc2)cc1F here.
7.14

Supply reported TGI belonging to this molecule: CN(C)CCCn1c2c(c3ccncc3c1=O)C(=O)c1ccccc1-2
5.31

Specify TGI for O=C1N[C@@H](c2c[nH]c3ccc(Br)cc23)C(=O)N[C@H]1c1c[nH]c2ccc(Br)cc12 and stop.
11.8

----------
Test system: DMS 273 small cell lung
assay_text: NCI tumour cell line growth inhibition, 48 h
Each item that follows carries a reported TGI.

Study these solved cases before continuing.
{"columns": ["compound", "TGI"],
 "data": [
  ["CC[N+]1(C)CCC(O)(/C=C/c2ccccc2)C(C(=O)/C=C/c2ccccc2)C1 (stereo not given)", "47.3 µM"],
  ["CC(C)CCC[C@@H](C)[C@H]1CC[C@H]2[C@@H]3CC=C4CC(OCCCCN(O)CCCSC5OC(CO)C(O)C(O)C5O)CC[C@]4(C)[C@H]3CC[C@]12C (stereo not given in full)", "> 100 µM"],
  ["CN1C(=N\\S(=O)(=O)c2ccc(Cl)cc2)/C(=N/N=P(c2ccccc2)(c2ccccc2)c2ccccc2)c2ccccc21", "> 100 µM"],
  ["S=C(N/N=C/c1ccccc1)NC1CC(c2ccccc2)Oc2ccccc21 (stereo not given)", "> 100 µM"],
  ["CC(C)OP(=O)(OC(C)C)c1ncn(-c2ccc([N+](=O)[O-])cc2)n1", "> 100 µM"]
]}

Input O=C(Nc1cccc(Cl)c1)c1cc2cc(N=Nc3ccc(Br)cc3)ccc2oc1=O , output reported TGI.
55.6 µM

Identify measured TGI corresponding to O=C(Cl)c1cc([N+](=O)[O-])cc([N+](=O)[O-])c1
> 100 µM

Provide measured TGI value, entry: C[N+](C)(C)CC(=O)N/N=C(\C(=O)Nc1ccc(Cl)cc1)C1C(=O)N(c2ccccc2)N=C1N (stereo not given)
> 100 µM

Give the measured TGI for CN(C)CCCNc1ccc2nnn3c4ccc([N+](=O)[O-])cc4c(=O)c1c23
6.89 µM

----------
Tested on: IGROV1 ovarian
assay_text: NCI tumour cell line growth inhibition, 48 h
metric_name: TGI (µM)
Please reply with the bare figure in µM and do not write the unit itself.

{"columns": ["smiles_entry", "TGI / µM"],
 "data": [
  ["Cc1cc(N2CCOCC2)nc(N(CCNc2ccnc3cc(Cl)ccc23)Cc2cccs2)n1", 4.97]
]}

Name the recorded TGI of the item COc1c(-c2ccc3c(c2)OCO3)oc2cc3c(c(OC)c2c1=O)OCO3 in your answer.
55.1
